Please go through the items and note down their self-cleavage.
B1: HDV Ribozyme (parent)
chain: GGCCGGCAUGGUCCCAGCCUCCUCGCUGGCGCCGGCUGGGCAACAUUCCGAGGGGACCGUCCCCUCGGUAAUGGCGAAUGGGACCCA

variants of: B1; experiment: self-cleavage, relative activity (ratio to wild type); higher = more cleavage; co-transcriptional

Recorded results for 4 variants are shown here.
>  <mut>
C24A G50C

>  <readout.kind>
self-cleavage

>  <test.result>
0.855

$$$$
>  <mut>
C21A G31A

>  <readout.kind>
self-cleavage

>  <test.result>
0.0482

$$$$
>  <mut>
U12C C30U

>  <readout.kind>
self-cleavage

>  <test.result>
0.156

$$$$
>  <mut>
C26A A45U

>  <readout.kind>
self-cleavage

>  <test.result>
1.19

$$$$

Provide the reported self-cleavage of each entry below, same order.
1. C21G G82U
2. U23G U65C
3. G2C C62G
4. G35C A45C

**A:**
[0.106, 0.864, 0.0852, 0]
